Tested on: SF-295 CNS
Experiment: NCI tumour cell line growth inhibition, 48 h; in the data active means GI50 below about 0.43 µM; inactive means the rest
Your response should consist of one outcome taken from active, inactive

Would you please look over these solved cases?
1) C[C@H]1COCCN1c1nc(-c2cnc(N)cc2C(F)F)nc(N2CCOCC2)n1 ... active
2) COc1ccc(/C=C2\COc3ccc(O)c(O)c3C2=O)cc1OC ... inactive
3) OC(CN1CCCC2CCCCC21)c1cc2ccccc2c2ccccc12 (stereo not given) ... inactive

Qu. Give the logged outcome of this assay for the following molecule: Cc1ccc(N=Nc2c(O)ccc3n[nH]nc23)cc1
Ans. inactive

Qu. Give the logged outcome of this assay for the following molecule: C=C1C(=O)O[C@H]2[C@H]1CC/C(COC(=O)CCCCCCCC(=O)OC/C1=C/CC[C@@]3(C)O[C@H]3[C@H]3OC(=O)C(=C)[C@@H]3CC1)=C\CC[C@@]1(C)O[C@@H]21
Ans. inactive

Qu. Give the logged outcome of this assay for the following molecule: COc1cc2c3c(n([C@@H]4CCOC4)c(=O)c2cc1OC)-c1cc2c(cc1C3=O)OCO2
Ans. active

Qu. Give the logged outcome of this assay for the following molecule: CC1=NN(c2cccc(Cl)c2)C(=O)/C1=C\C=C\c1ccccc1
Ans. inactive
